Origin of the recorded values: ChEMBL document CHEMBL4028811

// reported pIC50 per item
biological target: Poly [ADP-ribose] polymerase 2 (Homo sapiens, UniProt Q9UGN5); test: Inhibition of recombinant human PARP2 expressed in Escherichia coli BL21(DE3) using histone as substrate measured after 1 hr in presence of biotinylated NAD+ by ELISA
Sequence (Q9UGN5 whole entry): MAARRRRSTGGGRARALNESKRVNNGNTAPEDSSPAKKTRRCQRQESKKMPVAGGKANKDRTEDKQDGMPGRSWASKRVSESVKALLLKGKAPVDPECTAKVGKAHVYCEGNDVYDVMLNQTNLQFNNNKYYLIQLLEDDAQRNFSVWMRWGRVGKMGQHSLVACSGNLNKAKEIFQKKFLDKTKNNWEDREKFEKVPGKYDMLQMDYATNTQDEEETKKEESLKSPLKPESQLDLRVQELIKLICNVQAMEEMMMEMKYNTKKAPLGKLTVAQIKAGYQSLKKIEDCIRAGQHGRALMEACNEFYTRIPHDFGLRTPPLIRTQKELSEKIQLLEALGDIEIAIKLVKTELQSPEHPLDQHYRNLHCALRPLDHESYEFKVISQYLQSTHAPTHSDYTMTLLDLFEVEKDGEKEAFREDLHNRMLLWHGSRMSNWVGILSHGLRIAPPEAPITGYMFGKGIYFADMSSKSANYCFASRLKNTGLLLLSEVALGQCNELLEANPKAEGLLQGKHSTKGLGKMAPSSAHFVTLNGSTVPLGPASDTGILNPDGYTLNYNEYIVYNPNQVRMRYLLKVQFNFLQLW
pIC50: −log10 of the molar value.

molecule: NC(=O)c1cccc2[nH]c(C(=O)N3CCC(N)CC3)nc12
pIC50: 7.14

molecule: NC(=O)c1cccc2[nH]c(C(=O)N3CCC(N)C3)nc12 (stereo not drawn)
pIC50: 7.32

molecule: NC(=O)c1cccc2[nH]c(C(=O)N3CCC(NC4CCCCC4)C3)nc12 (stereo not drawn)
pIC50: 7.04

====

biological target: Poly [ADP-ribose] polymerase 1 (Homo sapiens, UniProt P09874); assay: Inhibition of PARP1 in human MX1 cells assessed as potentiation of temozolomide-induced cytotoxicity at 10 uM after 72 hrs by MTT assay relative to temozolomide alone; format: cell-based
Sequence (P09874 whole entry): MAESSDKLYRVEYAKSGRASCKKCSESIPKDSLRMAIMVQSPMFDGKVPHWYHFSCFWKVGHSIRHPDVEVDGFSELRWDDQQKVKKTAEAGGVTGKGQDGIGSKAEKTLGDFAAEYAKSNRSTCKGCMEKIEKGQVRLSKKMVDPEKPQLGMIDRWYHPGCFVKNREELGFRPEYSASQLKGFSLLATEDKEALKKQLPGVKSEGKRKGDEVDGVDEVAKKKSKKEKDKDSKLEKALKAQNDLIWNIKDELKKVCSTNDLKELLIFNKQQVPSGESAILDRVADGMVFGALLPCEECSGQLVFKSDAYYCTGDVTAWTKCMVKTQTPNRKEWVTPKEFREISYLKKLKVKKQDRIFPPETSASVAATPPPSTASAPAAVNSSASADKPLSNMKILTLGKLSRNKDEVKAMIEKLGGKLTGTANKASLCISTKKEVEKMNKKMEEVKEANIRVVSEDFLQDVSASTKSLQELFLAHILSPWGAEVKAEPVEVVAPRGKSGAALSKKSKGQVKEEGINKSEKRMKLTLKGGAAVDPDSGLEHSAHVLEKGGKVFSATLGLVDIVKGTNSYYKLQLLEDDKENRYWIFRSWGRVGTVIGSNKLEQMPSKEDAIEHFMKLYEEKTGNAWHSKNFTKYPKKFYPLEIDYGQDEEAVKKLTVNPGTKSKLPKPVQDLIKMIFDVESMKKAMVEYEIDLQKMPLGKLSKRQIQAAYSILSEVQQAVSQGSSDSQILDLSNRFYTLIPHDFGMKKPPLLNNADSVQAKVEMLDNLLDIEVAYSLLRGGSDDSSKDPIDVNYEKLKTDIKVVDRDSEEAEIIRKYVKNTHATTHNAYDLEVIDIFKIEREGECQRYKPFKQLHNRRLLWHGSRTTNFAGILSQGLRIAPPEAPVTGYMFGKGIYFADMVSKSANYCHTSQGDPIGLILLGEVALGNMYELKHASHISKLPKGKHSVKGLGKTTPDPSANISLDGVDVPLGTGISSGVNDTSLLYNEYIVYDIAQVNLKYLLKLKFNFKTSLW
Binary call on PF50 with cut-off 2: strictly below means yes, and equality or higher means no.

molecule: NC(=O)c1cc(F)cc2[nH]c(C(=O)N3CCC(NC4CCCCC4)CC3)nc12
study.target: Poly [ADP-ribose] polymerase 1 (Homo sapiens, UniProt P09874)
class.label: yes
//
molecule: NC(=O)c1cc(F)cc2[nH]c(C(=O)N3CCC(N)CC3)nc12
study.target: Poly [ADP-ribose] polymerase 1 (Homo sapiens, UniProt P09874)
class.label: yes
//
molecule: CCCNC1CCN(C(=O)c2nc3c(C(N)=O)cccc3[nH]2)C1 (configuration not stated)
study.target: Poly [ADP-ribose] polymerase 1 (Homo sapiens, UniProt P09874)
class.label: yes
//
molecule: NC(=O)c1cccc2[nH]c(C(=O)N3CCC(NC4CCCCC4)C3)nc12 (configuration not stated)
study.target: Poly [ADP-ribose] polymerase 1 (Homo sapiens, UniProt P09874)
class.label: no
//
molecule: NC(=O)c1cc(F)cc2[nH]c(C(=O)N3CCC(NC4CCCCC4)C3)nc12 (configuration not stated)
study.target: Poly [ADP-ribose] polymerase 1 (Homo sapiens, UniProt P09874)
class.label: yes
//
molecule: CC(C)(C)CN1CCC(NC(=O)c2nc3c(C(N)=O)cc(F)cc3[nH]2)CC1
study.target: Poly [ADP-ribose] polymerase 1 (Homo sapiens, UniProt P09874)
class.label: no

====

target: UniProt P09874; assay: Inhibition of recombinant human PARP1 expressed in Escherichia coli BL21(DE3) using histone as substrate measured after 1 hr in presence of biotinylated NAD+ by ELISA
// reported IC50 per item
endpoint.label: IC50 (nM)

compound: NC(=O)c1cccc2[nH]c(C(=O)NC3CCN(C4CCNCC4)CC3)nc12
reported.relation: =
experimental.value: 316
//
compound: CC[C@H]1CN(C(=O)c2nc3c(C(N)=O)cccc3[nH]2)CCN1
reported.relation: =
experimental.value: 19
//
compound: NC(=O)c1cccc2[nH]c(C(=O)N3CCNC(=O)C3)nc12
reported.relation: =
experimental.value: 29
//
compound: NC(=O)c1cccc2[nH]c(C(=O)NC3CCN(CC4CC4)CC3)nc12
reported.relation: =
experimental.value: 108
//
compound: CCC(=O)NC1CCN(C(=O)c2nc3c(C(N)=O)cccc3[nH]2)C1 (centres undefined)
reported.relation: =
experimental.value: 83
//
compound: CC(C)(C)OC(=O)N1CCC(NC2CCN(C(=O)c3nc4c(C(N)=O)cccc4[nH]3)CC2)CC1
reported.relation: =
experimental.value: 250
//
compound: CC(C)(C)OC(=O)NC1CCN(C(=O)c2nc3c(C(N)=O)cccc3[nH]2)C1 (centres undefined)
reported.relation: =
experimental.value: 857
//
compound: NC(=O)c1cccc2[nH]c(C(=O)NC3CCN(CC(F)(F)F)CC3)nc12
reported.relation: =
experimental.value: 34
//
compound: CC[C@@H]1CN(C(=O)c2nc3c(C(N)=O)cccc3[nH]2)CCN1C(=O)OC(C)(C)C
reported.relation: >
experimental.value: 100
//
compound: NC(=O)c1cccc2[nH]c(C(=O)N3CCC(NC4CCCCC4)C3)nc12 (centres undefined)
reported.relation: =
experimental.value: 75
//
compound: CC(C)N1CCC(NC(=O)c2nc3c(C(N)=O)cccc3[nH]2)CC1
reported.relation: =
experimental.value: 64
//
compound: CCCNC1CCN(C(=O)c2nc3c(C(N)=O)cccc3[nH]2)C1 (centres undefined)
reported.relation: =
experimental.value: 79
//
compound: NC(=O)c1cccc2[nH]c(C(=O)N3CCC(NC4CCNCC4)CC3)nc12
reported.relation: =
experimental.value: 316
//
compound: CC(C)(C)CN1CCC(NC(=O)c2nc3c(C(N)=O)cc(F)cc3[nH]2)CC1
reported.relation: =
experimental.value: 17
//
compound: NC(=O)c1cccc2[nH]c(C(=O)NC3CN4CCC3CC4)nc12 (centres undefined)
reported.relation: >
experimental.value: 100
//
compound: NC(=O)c1cccc2[nH]c(C(=O)NC3CCNCC3)nc12
reported.relation: =
experimental.value: 101
//
compound: NC(=O)c1cc(F)cc2[nH]c(C(=O)N3CCC(N)C3)nc12 (centres undefined)
reported.relation: =
experimental.value: 12
//
compound: NC(=O)c1cccc2[nH]c(C(=O)NC3CCN(C4CCCCC4)CC3)nc12
reported.relation: =
experimental.value: 311
//
compound: NC(=O)c1cc(F)cc2[nH]c(C(=O)N3CCNC(=O)C3)nc12
reported.relation: =
experimental.value: 15

====

// reported IC50 per item
molecular target: UniProt P09874; test: Inhibition of recombinant human PARP1 expressed in Escherichia coli BL21(DE3) using histone as substrate measured after 1 hr in presence of biotinylated NAD+ by ELISA

compound.string: CCN1CCC(NC(=O)c2nc3c(C(N)=O)cccc3[nH]2)CC1
output.unit: nM
IC50: 40

compound.string: CC(C)(C)OC(=O)NC1CCN(C(=O)c2nc3c(C(N)=O)cc(F)cc3[nH]2)CC1
output.unit: nM
IC50: 80

compound.string: NC(=O)c1cccc2[nH]c(C(=O)N3CCNCC3)nc12
output.unit: nM
IC50: 42

compound.string: NC(=O)c1cccc2[nH]c(C(=O)N3CCC(N)CC3)nc12
output.unit: nM
IC50: 29

compound.string: CC(C)CCN1CCC(NC(=O)c2nc3c(C(N)=O)cccc3[nH]2)CC1
output.unit: nM
IC50: 111
